B1: PPP2R2B (parent)
chain: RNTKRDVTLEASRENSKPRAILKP

Variants of: B1
Assay: protein stability index of a GFP-peptide fusion (GPS, HEK-293T) (PSI 1-6); higher = more stable;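 further: lentivirally expressed fusions sorted by FACS into six bins by GFP to DsRed ratio, PSI derived from sequencing read proportions per bin multiplied by bin number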
Details: c terminus: a fixed tail appended
observation_type: protein stability index

N2V	4.1
L22R	4.75
I21M	4.67
N2E	4.82
P18L	4.27
S12T	4.79

**Query** Can you look up the measured protein stability index of `T8M` for me?
**Result** 4.34

**Query** // protein stability index lookup, key: `N2D`
**Result** 4.89

**Query** Give its protein stability index value. Item: `P24Y`
**Result** 3.58

**Query** Tell me the measured protein stability index of `K17C` , please.
**Result** 4.18

**Query** Fill in: protein stability index of `R19K` is ___
**Result** 4.7

**Query** // lookup protein stability index for `K4W`
**Result** 3.39

**Query** Please report the recorded protein stability index for `S16H` .
**Result** 4.57

**Query** I am curious: what protein stability index value has been reported for `L9C` ?
**Result** 4.78

**Query** Could you tell me which protein stability index is on file for `K4P` ?
**Result** 4.88

**Query** GET /values?readout=protein stability index&item= `K23T`
**Result** 4.67

All values here come from the supplement of paper PMC10567573.
